- test_target: IL-17A/A (Homo sapiens)
- Construct: purchased Genscript Z03228
- run_description: IL-17A/A HEK-Blue Cell Assay
- Assay type: cell-based
- condition_parameters: HEK-Blue IL-17A reporter cell line, SEAP readout at A630, 20 hours incubation with IL-17A/A; top concentration 10 uM, 1 uM or 0.3 uM; read-out: IL-17A/A inhibition (pIC50) (converted)
Listed here are molecules together with their documented IC50.

{"molecule": "CCc1nonc1C(=O)N[C@H](C(=O)Nc1ccc([C@H](C)[C@@H](NC(=O)c2nonc2C)C(=O)N2CCN(C)CC2)cc1F)[C@H]1CC[C@H](C)CC1 [Compound 489]", "IC50": "0.01 to 0.1 µM"}
{"molecule": "CCC(=O)N[C@@H](C(=O)N1CCS(=O)(=O)CC1)[C@@H](C)c1ccc(NC(=O)[C@@H](NC(=O)c2ccnn2CC)C2CCCCC2)c(F)c1 [Compound 361]", "IC50": "0.01 to 0.1 µM"}
{"molecule": "CCC(=O)N[C@@H](C(=O)N1CCN(C)CC1)[C@@H](C)c1ccc(NC(=O)[C@@H](NC(=O)c2csc3ccccc23)C2CCCCCC2)c(F)c1 [Compound 259]", "IC50": "< 0.01 µM"}

* * *

- test_target: IL-17A/A (Homo sapiens, UniProt Q16552)
- Construct: purchased Genscript Z03228
- Sequence (Q16552 24-155): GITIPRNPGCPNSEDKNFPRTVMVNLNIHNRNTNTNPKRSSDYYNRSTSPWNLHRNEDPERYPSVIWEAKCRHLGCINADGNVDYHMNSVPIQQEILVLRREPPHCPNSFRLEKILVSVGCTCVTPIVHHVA
- run_description: IL-17A/A HEK-Blue Cell Assay
- Format: cell-based
- condition_parameters: HEK-Blue IL-17A reporter cell line, SEAP readout at A630, 20 hours incubation with IL-17A/A; top concentration 10 uM, 1 uM or 0.3 uM; read-out: IL-17A/A inhibition (pIC50) (converted)

{"item_smiles": "CCn1nccc1C(=O)N[C@H](C(=O)Nc1ccc([C@H](C)[C@@H](NC(=O)C(C)(F)F)C(=O)N2CCN(C)CC2)cc1F)[C@H]1CC[C@H](C)CC1", "IC50": "0.01 to 0.1 µM"}
{"item_smiles": "CCC(=O)N[C@H](Cc1ccc(NC(=O)[C@@H](NC(=O)C(F)(F)c2ccc(C)nc2)C2CCCCC2)c(F)c1)C(=O)N1CCN(C)CC1", "IC50": "0.1 to 10 µM"}
{"item_smiles": "CCn1nnnc1C(=O)N[C@H](C(=O)Nc1ccc([C@H](C)[C@@H](NC(=O)C(C)(F)F)C(=O)N2CCN(C)[C@H](C)C2)cc1F)[C@H]1CC[C@H](C)CC1", "IC50": "0.01 to 0.1 µM"}
{"item_smiles": "CCC(=O)N[C@@H](C(=O)N1CCN(C)CC1)[C@@H](C)c1ccc(NC(=O)[C@@H](NC(=O)C(F)(F)c2cccc(C#N)c2)C2CCCCC2)cc1", "IC50": "0.01 to 0.1 µM"}
{"item_smiles": "CCn1nccc1C(=O)N[C@H](C(=O)Nc1ccc([C@H](C)[C@@H](NC(=O)CC2CC2)C(=O)N2CCN(C)CC2)cc1F)[C@H]1CC[C@H](C)CC1", "IC50": "0.01 to 0.1 µM"}

* * *

- test_target: IL-17A/A (Homo sapiens, UniProt Q16552)
- Construct: purchased Genscript Z03228
- run_description: IL-17A/A HEK-Blue Cell Assay
- Assay type: cell-based
- condition_parameters: HEK-Blue IL-17A reporter cell line, SEAP readout at A630, 20 hours incubation with IL-17A/A; top concentration 10 uM, 1 uM or 0.3 uM; read-out: IL-17A/A inhibition (pIC50) (converted)
- Experimental: The HEK-Blue IL-17A reporter cell line (Fisher #NC1408637) was used for cell-based IL-17A/A inhibition assays. Cells were grown and prepared for assays according to the manufacturer's instructions. […] Media from the cells is then added to a development reagent (Quanti-Blue Substrate, Fisher #NC9711613), and read at A630. […]
Listed here are compounds together with their documented IC50.

{"compound": "CCC(=O)N[C@@H](C(=O)N1CCN(C)C(C)(C)C1)[C@@H](C)c1ccc(NC(=O)[C@@H](NC(=O)c2nonc2CC)[C@H]2CC[C@H](C)CC2)c(F)c1", "IC50": "< 10 nM"}
{"compound": "CCC(=O)N[C@@H](C(=O)N1CCN(C)CC1)[C@@H](C)c1ccc(NC(=O)C(NC(=O)c2nonc2CC)C(C)c2ccccc2Cl)c(F)c1 (stereo partly drawn)", "IC50": "100 to 10000 nM"}
{"compound": "CC(C)n1nccc1C(=O)N[C@H](C(=O)Nc1ccc([C@H](C)[C@@H](NC(=O)NC2CC2)C(=O)N2CCN(C)CC2)cc1F)C1CCCCCC1", "IC50": "< 10 nM"}
{"compound": "CCn1nccc1C(=O)N[C@H](C(=O)Nc1ccc([C@H](C)[C@@H](NC(=O)C(C)C2CC2)C(=O)N2CCN(C)[C@@H](C)C2)cc1F)[C@H]1CC[C@H](C)CC1 (stereo partly drawn)", "IC50": "< 10 nM"}
{"compound": "CCC(=O)N[C@@H](C(=O)N1CCOCC1)[C@@H](C)c1ccc(NC(=O)[C@@H](NC(=O)c2ccnn2CC)C2CCCCCC2)c(F)c1", "IC50": "10 to 100 nM"}
{"compound": "CCC(=O)N[C@H](Cc1ccc(NC(=O)[C@@H](NC(=O)c2ccnn2CC)C2CCCCC2)c(F)c1)C(=O)N1CCN(C)CC1", "IC50": "100 to 10000 nM"}

* * *

Listed here are compounds together with their documented IC50.
- test_target: IL-17A/A (Homo sapiens, UniProt Q16552)
- Construct: purchased Genscript Z03228
- run_description: IL-17A/A HEK-Blue Cell Assay
- Format: cell-based
- condition_parameters: HEK-Blue IL-17A reporter cell line, SEAP readout at A630, 20 hours incubation with IL-17A/A; top concentration 10 uM, 1 uM or 0.3 uM; read-out: IL-17A/A inhibition (pIC50) (converted)

{"item_smiles": "CCC(=O)N[C@H](Cc1ccc(NC(=O)[C@@H](NC(=O)c2cncn2CC)C2CCCCC2)c(F)c1)C(=O)N1CCN(C)CC1", "IC50": "0.1 to 10 µM"}
{"item_smiles": "CCn1nccc1C(=O)N[C@H](C(=O)Nc1ccc([C@H](C)[C@@H](NC(=O)NC(C)C)C(=O)N2CCN(C)CC2)cc1F)C1CCCCCC1", "IC50": "0.01 to 0.1 µM"}
{"item_smiles": "CCn1nccc1C(=O)N[C@H](C(=O)Nc1ccc([C@H](C)[C@@H](NC(=O)OC2CC2)C(=O)N2CCN(C)CC2)cc1F)[C@H]1CC[C@H](C)CC1", "IC50": "0.01 to 0.1 µM"}
{"item_smiles": "CCC(=O)N[C@@H](C(=O)N1CCN(CCO)CC1)[C@@H](C)c1ccc(NC(=O)[C@@H](NC(=O)c2ccnn2CC)[C@H]2CC[C@H](C)CC2)c(F)c1", "IC50": "0.01 to 0.1 µM"}
{"item_smiles": "CCC(=O)N[C@@H](C(=O)N1CCN(C)CC1)[C@@H](C)c1ccc(NC(=O)[C@@H](NC(=O)c2conc2C2CC2)[C@H]2CC[C@H](C)CC2)c(F)c1", "IC50": "0.01 to 0.1 µM"}
{"item_smiles": "CCC(=O)N[C@@H](C(=O)N1CCS(=O)(=O)CC1)[C@@H](C)c1ccc(NC(=O)[C@@H](NC(=O)c2ccnn2CC)C2CCCCCC2)c(F)c1", "IC50": "0.01 to 0.1 µM"}
{"item_smiles": "CCn1nccc1C(=O)N[C@H](C(=O)Nc1ccc([C@H](C)[C@@H](NC(=O)c2coc(C)n2)C(=O)N2CCN(C)CC2)cc1F)C1CCCCC1", "IC50": "0.1 to 10 µM"}
{"item_smiles": "CCn1nccc1C(=O)N[C@H](C(=O)Nc1ccc([C@H](C)[C@@H](NC(=O)CC#N)C(=O)N2CCN(C)CC2)cc1F)C1CCCCC1", "IC50": "0.1 to 10 µM"}
{"item_smiles": "CCC(=O)N[C@@H](C(=O)N1CCN(Cc2ccccn2)CC1)[C@@H](C)c1ccc(NC(=O)[C@@H](NC(=O)c2ccnn2CC)[C@H]2CC[C@H](C)CC2)c(F)c1", "IC50": "0.01 to 0.1 µM"}
{"item_smiles": "CCC(=O)N[C@@H](C(=O)N1CCN(C)CC1)[C@@H](C)c1ccc(NC(=O)[C@@H](NC(=O)c2csc3ncccc23)C2CCCCC2)c(F)c1", "IC50": "0.01 to 0.1 µM"}
{"item_smiles": "CCC(=O)N[C@@H](C(=O)N1CCN(C)CC1)[C@@H](C)c1ccc(NC(=O)[C@@H](NC(=O)c2ccnn2CC)[C@H]2CC[C@H](C(F)(F)F)CC2)c(F)c1", "IC50": "0.1 to 10 µM"}
{"item_smiles": "CCC(=O)N[C@@H](C(=O)N1CCN(C)CC1)[C@@H](C)c1ccc(NC(=O)[C@@H](NC(=O)c2conc2CC)C2CCCCC2)cc1", "IC50": "0.01 to 0.1 µM"}
{"item_smiles": "CCC(=O)N[C@@H](C(=O)N1CCN(C)CC1)[C@@H](C)c1ccc(NC(=O)[C@@H](NC(=O)C(F)(F)c2ccc(OC)nc2)[C@H]2CC[C@H](C(F)(F)F)CC2)c(F)c1", "IC50": "0.01 to 0.1 µM"}
{"item_smiles": "CCC(=O)N[C@@H](C(=O)N1CCN(C)CC1(C)C)[C@@H](C)c1ccc(NC(=O)[C@@H](NC(=O)c2nonc2CC)[C@H]2CC[C@H](C)CC2)c(F)c1", "IC50": "< 0.01 µM"}
{"item_smiles": "CCC(=O)N[C@@H](C(=O)N1CCN(C)CC1)[C@@H](C)c1ccc(NC(=O)[C@@H](NC(=O)C(F)(F)c2cccc(C#N)c2)[C@H]2CC[C@H](C(F)(F)F)CC2)c(F)c1", "IC50": "0.01 to 0.1 µM"}
{"item_smiles": "CCC(=O)N[C@@H](C(=O)N1CCN(C)CC1)[C@@H](C)c1ccc(NC(=O)[C@@H](NC(=O)C(F)(F)c2cccc(C#N)c2)C2CCCCCC2)c(F)c1", "IC50": "< 0.01 µM"}
{"item_smiles": "COc1ccc(C(F)(F)C(=O)N[C@H](C(=O)Nc2ccc(C[C@@H](NC(=O)c3cnns3)C(=O)N3CCN(C)CC3)cc2F)C2CCCCC2)cn1", "IC50": "0.01 to 0.1 µM"}
{"item_smiles": "C[C@@H](c1ccc(NC(=O)[C@@H](NC(=O)C(F)(F)c2cncc(C#N)c2)C2CCCCCC2)c(F)c1)[C@@H](NC(=O)c1cnns1)C(=O)N1CCN(C)CC1", "IC50": "< 0.01 µM"}
{"item_smiles": "CCC(=O)N[C@H](Cc1ccc(NC(=O)[C@@H](NC(=O)C(F)(F)c2ccc(OC)nc2)C2CCCCC2)c(F)c1)C(=O)N1CCN(C)CC1", "IC50": "0.1 to 10 µM"}
{"item_smiles": "CCn1nccc1C(=O)N[C@H](C(=O)Nc1ccc([C@H](C)[C@@H](NC(=O)c2cscn2)C(=O)N2CCN(C)CC2)cc1F)C1CCCCC1", "IC50": "0.1 to 10 µM"}
{"item_smiles": "CCn1nccc1C(=O)N[C@H](C(=O)Nc1ccc([C@H](C)[C@@H](NC(=O)[C@H](C)F)C(=O)N2CCN(C)CC2)cc1F)[C@H]1CC[C@H](C)CC1", "IC50": "0.01 to 0.1 µM"}
{"item_smiles": "CCC(=O)N[C@@H](C(=O)N1CCN(C)CC1)[C@@H](C)c1ccc(NC(=O)[C@@H](NC(=O)C(F)(F)c2cccc(NS(C)(=O)=O)c2)C2CCCCC2)c(F)c1", "IC50": "0.01 to 0.1 µM"}
